Target: furin, P09958;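 note: purified furin at 1:10 enzyme:substrate in 50 mM HEPES pH 7.5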
Sequence (P09958 whole entry): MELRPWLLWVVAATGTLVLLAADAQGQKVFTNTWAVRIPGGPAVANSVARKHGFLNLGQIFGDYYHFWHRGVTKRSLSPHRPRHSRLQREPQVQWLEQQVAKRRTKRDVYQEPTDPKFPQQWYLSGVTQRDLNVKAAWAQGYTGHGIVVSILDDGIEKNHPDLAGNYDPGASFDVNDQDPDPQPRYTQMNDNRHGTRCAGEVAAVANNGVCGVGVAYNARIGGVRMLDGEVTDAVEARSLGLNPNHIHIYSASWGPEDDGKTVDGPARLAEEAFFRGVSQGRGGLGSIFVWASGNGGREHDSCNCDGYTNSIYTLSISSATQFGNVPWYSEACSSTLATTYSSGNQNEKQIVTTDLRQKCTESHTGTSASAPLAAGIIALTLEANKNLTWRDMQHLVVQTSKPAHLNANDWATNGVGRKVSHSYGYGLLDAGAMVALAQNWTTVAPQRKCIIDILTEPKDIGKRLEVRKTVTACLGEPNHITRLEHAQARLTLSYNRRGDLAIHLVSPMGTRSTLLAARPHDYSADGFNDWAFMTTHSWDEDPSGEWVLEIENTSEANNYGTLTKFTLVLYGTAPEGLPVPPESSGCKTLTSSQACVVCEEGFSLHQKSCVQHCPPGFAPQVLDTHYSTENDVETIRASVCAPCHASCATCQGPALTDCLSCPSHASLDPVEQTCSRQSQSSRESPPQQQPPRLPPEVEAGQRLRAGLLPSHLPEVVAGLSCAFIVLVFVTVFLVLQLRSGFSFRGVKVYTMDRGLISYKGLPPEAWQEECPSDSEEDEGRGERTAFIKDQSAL
Assay: furin cleavage Z-score vs untreated control; higher = more cleavage, active = 3.5 or more, inactive = 1 or less, 8 variable residues between constant flanks
Conditions: 30 min
The list shows a part of the results. No count for the full screen is at hand.
Label scheme for furin cleavage Z-score: lower than 4 is 0, 4 and above is 1.

INPUT: Has CAIRSRVLREAGNASASA [FS-804] a recorded furin cleavage Z-score greater than or equal to 4?
OUTPUT: 1

INPUT: hey, is furin cleavage Z-score for this one >= 4? CALRSRWGRSAGNASASA [FS-1370]
OUTPUT: 1

INPUT: Tell me whether furin cleavage Z-score is at least 4 here: CATSSRNARNAGNASASA [FS-571]
OUTPUT: 1

INPUT: Can CADCNTCVTQAGNASASA [HC887] be said to have furin cleavage Z-score at or above 4?
OUTPUT: 0

INPUT: Is furin cleavage Z-score for CALRRRMRRRAGNASASA [FS-1368] at or above 4?
OUTPUT: 1

INPUT: Can CATPCTCGSSAGNASASA [HC721] be said to have furin cleavage Z-score at or above 4?
OUTPUT: 0

INPUT: Can CAQRERSGRSAGNASASA [FS-1057] be said to have furin cleavage Z-score at or above 4?
OUTPUT: 1

INPUT: State whether the measured furin cleavage Z-score reaches 4, counting equality as reaching it, for CATTPCSGPWAGNASASA [HC1919]
OUTPUT: 0

INPUT: Would you say CARRKRNVNTAGNASASA [FS-2068] shows furin cleavage Z-score at minimum 4?
OUTPUT: 1

INPUT: Answer whether furin cleavage Z-score of CAHHHRHHRAAGNASASA [FS-1336] is greater than or equal to 4.
OUTPUT: 0

INPUT: Threshold query (furin cleavage Z-score >= 4) on CARKKRIFNLAGNASASA [FS-2693]
OUTPUT: 0

INPUT: Threshold query (furin cleavage Z-score >= 4) on CALRLRKGRSAGNASASA [FS-613]
OUTPUT: 0

INPUT: Answer whether furin cleavage Z-score of CAAAGLQDCTAGNASASA [HC1523] is greater than or equal to 4.
OUTPUT: 0

INPUT: I'd appreciate it if you could say whether CATLPCSGSWAGNASASA [HC1845] has furin cleavage Z-score at least equal to 4.
OUTPUT: 0

INPUT: Does the sequence CAMEECIQHLAGNASASA [HC25] have recorded furin cleavage Z-score that is 4 or more?
OUTPUT: 0

INPUT: Is furin cleavage Z-score at least 4? Consider CAVYNHLTPLAGNASASA [HC635]
OUTPUT: 0

INPUT: Assess whether reported furin cleavage Z-score for CASLERLRRGAGNASASA [FS-296] sits at 4 or higher.
OUTPUT: 0

INPUT: Check the entry CAYASRGIRPAGNASASA [FS-1618] : does furin cleavage Z-score equal or exceed 4?
OUTPUT: 0

INPUT: furin cleavage Z-score >= 4 for CAMEECWQHLAGNASASA [HC27] ?
OUTPUT: 0

INPUT: Exam item: decide whether the reported furin cleavage Z-score for CATDSRTNRDAGNASASA [FS-1422] is at least 4.
OUTPUT: 0

INPUT: Reported furin cleavage Z-score reaches at least 4 for CAEVPCHRPSAGNASASA [HC2312] ?
OUTPUT: 0

INPUT: Is furin cleavage Z-score for CALEHRRMRRAGNASASA [FS-349] at or above 4?
OUTPUT: 1

INPUT: Check this sequence for furin cleavage Z-score at or above 4: CAEQGRQGRSAGNASASA [FS-416]
OUTPUT: 0

INPUT: Determine whether measured furin cleavage Z-score meets or exceeds 4 for CAGLRRRKRDAGNASASA [FS-930]
OUTPUT: 1

INPUT: Determine whether this sequence has furin cleavage Z-score no lower than 4: CAIRSALKRPAGNASASA [FS-444]
OUTPUT: 0

INPUT: Reported furin cleavage Z-score reaches at least 4 for CAAEVRSKRRAGNASASA [FS-3] ?
OUTPUT: 1

INPUT: Kindly determine if furin cleavage Z-score recorded for CAHHHRHRRAAGNASASA [FS-1006] is above or exactly 4.
OUTPUT: 1

INPUT: Determine whether this sequence has furin cleavage Z-score no lower than 4: CAPLRRSKRRAGNASASA [FS-1148]
OUTPUT: 1

INPUT: Check if furin cleavage Z-score >= 4 (inclusive). Item: CAITGHVKNGAGNASASA [HC1178]
OUTPUT: 0

INPUT: Does the reported furin cleavage Z-score for CARRKRKNKTAGNASASA [FS-1968] fall at or above the 4 mark?
OUTPUT: 0
